Entry source: ChEMBL document CHEMBL1154196

Entries and their measured MBC follow.
test system: Mycobacterium tuberculosis; test: Antitubercular activity against Mycobacterium tuberculosis H37Rv ATCC 25618 after 2 weeks; assay type: functional; details: 336 h
Give just the numeric value; µg/mL need not be written.

The examples below pair each entry with its known result.
Cc1ccc(C(OC[C@@H](O)CNCCNC[C@H](O)COC(c2ccc(C)cc2)c2ccc(C)cc2)c2ccc(C)cc2)cc1 = 6.25
Cc1ccc(C(OC[C@@H](O)CN2CCCN(C[C@H](O)COC(c3ccc(C)cc3)c3ccc(C)cc3)CC2)c2ccc(C)cc2)cc1 = 1.56
CC[C@@H](CO)NCCN[C@@H](CC)CO [ETHAMBUTOL] = 3.13

Input line: What measured MBC is associated with Cc1ccc(C(OC[C@H](O)CN2CCN(C[C@@H](O)COC(c3ccc(C)cc3)c3ccc(C)cc3)CC2)c2ccc(C)cc2)cc1 on Mycobacterium tuberculosis?
Output line: 6.25

Input line: Lookup Cc1ccc(C(OC[C@H](O)CNCCNC[C@@H](O)COC(c2ccc(C)cc2)c2ccc(C)cc2)c2ccc(C)cc2)cc1
Output line: 6.25

Input line: Please give the result for Cc1ccc(C(OC[C@H](O)CN2CCCN(C[C@@H](O)COC(c3ccc(C)cc3)c3ccc(C)cc3)CC2)c2ccc(C)cc2)cc1 too.
Output line: 3.13

Input line: Queued: COc1ccc(C(OC[C@@H](O)CNCCNC[C@H](O)COC(c2ccc(OC)cc2)c2ccc(OC)cc2)c2ccc(OC)cc2)cc1
Output line: 25

Input line: Same question for O[C@@H](CNCCNC[C@H](O)COC(c1ccc(Br)cc1)c1ccc(Br)cc1)COC(c1ccc(Br)cc1)c1ccc(Br)cc1 please.
Output line: 25
